assay: Half-lives and pharmacokinetic parameters of polypeptides vs HM-1; conditions: in vivo; read-out: AUC0-∞
Peptide text beside a SMILES is read from it. * marks the point of attachment. Hexanoyl(6-maleimido) = O=C1C=CC(=O)N1CCCCCC(=O)*; Propanoyl(3-maleimido) = O=C1C=CC(=O)N1CCC(=O)*; Maleimidoacetyl = O=C1C=CC(=O)N1CC(=O)*
quantity measured: AUC(0-inf) (ng·h/mL)
Hi! Could you send only the number? It should be in ng·h/mL, unit omitted.

AUC(0-inf) for C[C@H](NC(=O)CNC(=O)[C@H](CCCNC(=N)N)NC(=O)CN1C(=O)C=CC1=O)C(=O)N[C@@H](CC(=O)O)C(=O)N[C@@H](CCCNC(=N)N)C(=O)N[C@@H](C)C(=O)NCC(=O)NCC(=O)NCC(=O)NCC(=O)N[C@@H](CCCNC(=N)N)C(=O)NCC(=O)N[C@@H](CC(=O)O)C(=O)O [X1] (Maleimidoacetyl-RGADRAGGGGRGD-OH) ?
29000

Looking for the measured AUC(0-inf) of C[C@H](NC(=O)CNC(=O)[C@H](CCCNC(=N)N)NC(=O)CCN1C(=O)C=CC1=O)C(=O)N[C@@H](CC(=O)O)C(=O)N[C@@H](CCCNC(=N)N)C(=O)N[C@@H](C)C(=O)N[C@@H](CCC(=O)O)C(=O)N[C@@H](C)C(=O)N[C@@H](C)C(=O)N[C@@H](C)C(=O)N[C@@H](CCCCN)C(=O)N[C@@H](CCCNC(=N)N)C(=O)NCC(=O)N[C@@H](CC(=O)O)C(=O)O [P11] ({Propanoyl(3-maleimido)}-RGADRAEAAAKRGD-OH) , can you help?
31600

What does the record list as AUC(0-inf) for CC(C)[C@H](NC(=O)[C@H](C)NC(=O)CNC(=O)[C@H](CCCNC(=N)N)NC(=O)CCN1C(=O)C=CC1=O)C(=O)N[C@@H](CC(=O)O)C(=O)N[C@@H](CCCNC(=N)N)C(=O)N[C@@H](C)C(=O)NCC(=O)NCC(=O)NCC(=O)NCC(=O)N[C@@H](CCCNC(=N)N)C(=O)NCC(=O)N[C@@H](CC(=O)O)C(=O)O [P9] ({Propanoyl(3-maleimido)}-RGAVDRAGGGGRGD-OH; C-terminus assumed) ?
27900

Bench note: what AUC(0-inf) did CC(C)[C@H](NC(=O)[C@H](C)NC(=O)CNC(=O)[C@H](CCCNC(=N)N)NC(=O)CCCCCN1C(=O)C=CC1=O)C(=O)N[C@@H](CC(=O)O)C(=O)N[C@@H](CCCNC(=N)N)C(=O)N[C@@H](C)C(=O)NCC(=O)NCC(=O)NCC(=O)NCC(=O)N[C@@H](CCCNC(=N)N)C(=O)NCC(=O)N[C@@H](CC(=O)O)C(=O)O [P10] ({Hexanoyl(6-maleimido)}-RGAVDRAGGGGRGD-OH; C-terminus assumed) show?
24600

Origin of values: patent US20200270309A1
